System: DR4
assay.remarks: DR4
readout.name: pIC50
Hey, just a heads up that pIC50 is the negative log base 10 of the concentration in molar.

Prompt: Quick check: pIC50 of GAPLGGAARALAHG [C 141-155] ?
Response: 4.10

###

tested.target: HLA-DR3 (DRB1*0301) (Homo sapiens, UniProt P01903+P01911, A100K/A102G/A103R/A169T/F55Y/I96L/K41T/L162R/M171V/P40S/Q125H/Q178H/Q39Y/R42S/S66N/T106N/T262R/W38E/Y61H)
Construct: endogenous in cells; host or cells: homozygous EBV-transformed human B lymphocyte lines; immunopurified with antibody L243
assay.remarks: biochemical
Assay type: binding
recorded.conditions: tracer MT 2-16, read-out: IC50, binding to HLA-DR3
Residues, ends and D or L forms follow the SMILES beside them.
readout.name: IC50

Previously resolved entries follow.
CC[C@H](C)[C@H](NC(=O)[C@H](CS)NC(=O)CNC(=O)[C@H](CC(C)C)NC(=O)[C@H](CC(C)C)NC(=O)CNC(=O)[C@@H](N)CCCNC(=N)N)C(=O)N[C@H](C(=O)N[C@H](C(=O)N[C@@H](CO)C(=O)N[C@@H](CC(C)C)C(=O)N[C@H](C(=O)NCC(=O)N[C@@H](CCCNC(=N)N)C(=O)N[C@@H](CC(=O)O)C(=O)O)[C@@H](C)O)[C@@H](C)O)[C@@H](C)O [9N 1036-1050]
> 100 µM
CC(C)C[C@H](NC(=O)[C@H](CC(N)=O)NC(=O)[C@H](CCC(=O)O)NC(=O)CNC(=O)[C@H](CO)NC(=O)[C@H](CCC(N)=O)NC(=O)[C@H](CCCCN)NC(=O)[C@@H](NC(=O)[C@H](CCC(N)=O)NC(=O)[C@H](CO)NC(=O)[C@H](CC(C)C)NC(=O)[C@H](Cc1ccccc1)NC(=O)[C@H](Cc1c[nH]cn1)NC(=O)[C@H](C)NC(=O)[C@@H](N)CC(=O)O)[C@@H](C)O)C(=O)O [29N 1569-1583]
> 100 µM
CC[C@H](C)[C@H](NC(=O)[C@H](CS)NC(=O)CN)C(=O)N[C@H](C(=O)N[C@H](C(=O)N[C@@H](CO)C(=O)N[C@@H](CC(C)C)C(=O)N[C@H](C(=O)NCC(=O)N[C@@H](CCCNC(=N)N)C(=O)N[C@@H](CC(=O)O)C(=O)N[C@@H](CCCCN)C(=O)N[C@@H](CC(N)=O)C(=O)N[C@@H](CCC(N)=O)C(=O)N[C@H](C(=O)O)C(C)C)[C@@H](C)O)[C@@H](C)O)[C@@H](C)O [9N 1041-1055] (H-GCITTSLTGRDKNQV-OH; N-terminus and C-terminus assumed)
62.5 µM

Now let's try a different one.
Prompt: Please report the recorded IC50 for CC[C@H](C)[C@H](NC(=O)[C@H](Cc1c[nH]cn1)NC(=O)[C@@H](NC(=O)[C@H](CC(C)C)NC(=O)CNC(=O)[C@@H](NC(=O)[C@H](Cc1ccccc1)NC(=O)[C@@H](NC(=O)CNC(=O)[C@@H](N)CCC(=O)O)C(C)C)[C@@H](C)O)[C@@H](C)O)C(=O)N[C@@H](CC(=O)O)C(=O)N[C@@H](C)C(=O)N[C@@H](Cc1c[nH]cn1)C(=O)N[C@@H](Cc1ccccc1)C(=O)N[C@@H](CC(C)C)C(=O)O [29N 1559-1573] .
Response: > 100 µM

Source: patent US20060110401A1
